// values below are reported kon
# Tgt: T1, human SIRPβ-Fc (human)
# T1 construct: a signal peptide may be part of the entry
# Measurement Protocol: BLI Octet, antigen-Fc on biosensor;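 further: antigen captured on the biosensor tip and then immersed in solutions of the test antibodies, which act as the analyte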
Express the result in M⁻¹ s⁻¹ but write the number alone.

[[record]]
binder = "SIRPAB-7 (antibody, human IgG1, kappa, V domains shown) VH: QVQLQESGPGLVKPSQTLSLTCTVSGGSISSGEYYWEWIRQHPGKGLEWIGYIYSSGFTYYNPSLKSRVTISVDTSKNQFSLKLSSVTAADTAVYYCAREGLDGSYGSSAWGQGTLVTVSS VL: DIQLTQSPSSLSASVGDRVTITCQASQDISNYLNWYQQKPGKAPKLLIYDASNLETGVPSRFSGSGSGTDFTFTISSLQPEDIATYYCQQFAYLPYTFGGGTKVEIKR"
result_unit = "M⁻¹ s⁻¹"
observed = "1.53e+06"

[[record]]
binder = "SIRPAB-13 (antibody, human IgG1, kappa, V domains shown) VH: QVQLVQSGAEVKKPGASVKVSCKASGYTFHGYGISWVRQAPGQGLEWMGWISAYSGETNYAQKLQGRVTMTTDTSTSTAYMELRSLRSDDTAVYYCAREAGSSWYDFDLWGRGTLVTVSS VL: DIQMTQSPSSVSASVGDRVTITCRASQGISSWLAWYQQKPGKAPKLLIYAASNLQSGVPSRFSGSGSGTDFTLTISSLQPEDFATYYCQQGASFPITFGGGTKVEIKR"
result_unit = "M⁻¹ s⁻¹"
observed = "1.21e+06"

[[record]]
binder = "SIRPAB-10 (antibody, human IgG1, kappa, V domains shown) VH: QVQLVQSGAEVKKPGASVKVSCKASGYTFTGYPISWVRQAPGQGLEWMGWIYAYGGNTNYAQKLQGRVTMTTDTSTSTAYMELRSLRSDDTAVYYCAREAGSSWYDFDLWGRGTLVTVSS VL: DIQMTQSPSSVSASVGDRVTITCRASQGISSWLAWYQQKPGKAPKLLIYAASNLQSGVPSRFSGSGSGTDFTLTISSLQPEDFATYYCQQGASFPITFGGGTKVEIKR"
result_unit = "M⁻¹ s⁻¹"
observed = "1.4e+06"


# context switch: different binder, same kon
# kon (binder: SIRPAB-9 (antibody, human IgG1, kappa, V domains shown) VH: QVQLVQSGAEVKKPGASVKVSCKASGYTFGGYGISWVRQAPGQGLEWMGWISAYGGETNYAQKLQGRVTMTTDTSTSTAYMELRSLRSDDTAVYYCAREAGSSWYDFDLWGRGTLVTVSS VL: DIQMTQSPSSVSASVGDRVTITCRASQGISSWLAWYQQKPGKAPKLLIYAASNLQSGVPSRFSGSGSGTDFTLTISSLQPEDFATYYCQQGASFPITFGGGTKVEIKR ) is 1.02e+06
